B1: NP_116010.1 (parent)
chain: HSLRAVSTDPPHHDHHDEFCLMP

- Variants of: B1
- Experiment Description: protein stability index of a GFP-peptide fusion (GPS, HEK-293T) (PSI 1-6); higher = more stable;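 note: lentivirally expressed fusion library, cells FACS-sorted into six equal-sized GFP/DsRed ratio bins, PSI computed from sequencing read fractions per bin weighted by bin number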
- Assay Context: c terminus: native
Quantity: protein stability index

Consider the worked cases shown below.
In [3]: df
Out[3]:
                   chain_sequence  recorded_measurement
0  HSLRAVSTDPPHHDHHDERCLMP [F19R]                   2.5
1  HSLRAVSTDPPHHRHHDEFCLMP [D14R]                     2
2  HSLRAVSTDPPHHDDHDEFCLMP [H15D]                  3.15
3   RSLRAVSTDPPHHDHHDEFCLMP [H1R]                  2.68
4  HSLRAVSTDPPHHDHHHEFCLMP [D17H]                  2.21

Take each entry in turn and give its protein stability index.
1. HSNRAVSTDPPHHDHHDEFCLMP [L3N]
2. HSLRAVSTDPSHHDHHDEFCLMP [P11S]

Result:
1. 3.45
2. 2.34

Answer for every listed entry: what is its protein stability index? The entries follow.
1. HSLRAVSTDPPHHDNHDEFCLMP [H15N]
2. HSLRAVSTDPMHHDHHDEFCLMP [P11M]
3. HSLRAVSTDPPHHDKHDEFCLMP [H15K]
4. HSLRAVSTDMPHHDHHDEFCLMP [P10M]
5. HSKRAVSTDPPHHDHHDEFCLMP [L3K]
6. HSLRIVSTDPPHHDHHDEFCLMP [A5I]
7. HSLRAVSTDPPHNDHHDEFCLMP [H13N]
8. HSLRASSTDPPHHDHHDEFCLMP [V6S]

Result:
1: 2.76; 2: 2.71; 3: 2.6; 4: 2.47; 5: 2.76; 6: 2.56; 7: 2.39; 8: 2.62
